Measurement Label: melting point

Reference set (5 entries):
compound=O=C(O)c1cc2cc(Cl)c(Cl)cc2[nH]1 measurement_label="melting point" result="321 to 323 °C"
compound=ClCc1nnc(-c2ccco2)o1 measurement_label="melting point" result="81 to 83 °C"
compound="O=C1NC(=O)C(c2ccccc2)(C(F)(F)F)N1 (stereo unspecified)" measurement_label="melting point" result="240 to 242 °C"
compound=Nc1nncc(-c2ccc(OC(F)F)cc2)n1 measurement_label="melting point" result="223 to 225 °C"
compound=O=C1NC2(CCCCC2)C(=O)N1Cc1ccccc1 measurement_label="melting point" result="151 to 153 °C"

Q: Supply melting point value. Item: OCCCOc1ccc(Br)cc1
A: 34 to 36 °C

Q: Specify measured melting point for CNS(=O)(=O)CBr .
A: 64 to 66 °C

Q: Give recorded melting point. CS(=O)(=O)Nc1ccc(C(=O)O)cc1
A: 198 to 200 °C

Q: Specify reported melting point for the compound shown: CCN(CC(=O)O)S(=O)(=O)c1cccnc1Cl
A: 156 to 158 °C

Q: Identify measured melting point associated with O=C(O)c1cccnc1Oc1ccc(Cl)cc1Cl
A: 191 to 193 °C

Q: Determine from records and report melting point for O=C(O)CN1C(=O)COc2cc(Br)ccc21
A: 234 to 236 °C

From: a melting point compilation (Tetko et al.)
